Tested on: 501Mel cells (parental)
testDescription: Kinase inhibitor library screening, PrestoBlue cell viability, 1 or 10 μM, 72 h
assaySetup: 501Mel Parental, 1μΜ, 72 h
Structures can show the parent of a compound that is named as a salt.
Provide the reported cell viability (kinase inhibitor library screening) of each item.

molecule	reading
CNC(=O)c1cc(Oc2ccc(NC(=O)Nc3ccc(Cl)c(C(F)(F)F)c3)c(F)c2)ccn1	93.5%
CCCCCCCCCCCCc1ccc(S(=O)(=O)Nc2nncs2)cc1	99.9%
CCc1cccc(CC)c1NC(=O)N1Cc2n[nH]c(NC(=O)c3ccc(N4CCN(C)CC4)cc3)c2C1	104.0%
CCN1CCN(C(=O)Cc2ccc(Nc3ncc(F)c(Nc4ccc(C(=O)Nc5ccccc5Cl)cc4)n3)cc2)CC1	105.7%
CCN(CCO)CCCOc1ccc2c(Nc3cc(CC(=O)Nc4cccc(F)c4)[nH]n3)ncnc2c1	96.3%

Look up cell viability (kinase inhibitor library screening) for the entries below, preserving their order.
1. O=C(NC1CCNCC1)c1[nH]ncc1NC(=O)c1c(Cl)cccc1Cl [AT7519, reference compound]
2. COc1cc2c(Oc3ccc(NC(=O)C4(C(=O)Nc5ccc(F)cc5)CC4)cc3F)ccnc2cc1OCCCN1CCOCC1
3. O=C(Nc1c[nH]nc1-c1nc2ccc(CN3CCOCC3)cc2[nH]1)NC1CC1
4. CC(C)(C)c1cnc(CSc2cnc(NC(=O)C3CCNCC3)s2)o1
5. CN1CC[C@H](c2c(O)cc(O)c3c(=O)cc(-c4ccccc4Cl)oc23)[C@H](O)C1 [Flavopiridol hydrochloride]

### Response
82.3%
84.1%
67.5%
23.5%
1.1%

Look up cell viability (kinase inhibitor library screening) for the entries below, preserving their order.
1. Cn1cc(-c2ccc3nnc(Sc4ccc5ncccc5c4)n3n2)cn1
2. S=C(NCc1ccc2c(c1)OCO2)N1CCN(c2ncnc3c2oc2ccccc23)CC1
3. O=C(O)c1ccc(Nc2ncc3c(n2)-c2ccc(Cl)cc2C(c2c(F)cccc2F)=NC3)cc1
4. Cc1[nH]c(/C=C2\C(=O)Nc3ccc(S(=O)(=O)N(C)c4cccc(Cl)c4)cc32)c(C)c1C(=O)N1CCN(C)CC1
5. CNC(=O)c1ccc(-c2cnc3ncc(Cc4ccc5ncccc5c4)n3n2)cc1F

### Response
95.0%
98.9%
86.3%
107.1%
99.4%

---

Tested on: A375-XP cells (Vemurafenib-resistant)
testDescription: Kinase inhibitor library screening, PrestoBlue cell viability, 1 or 10 μM, 72 h
assaySetup: A375 XP, 1μΜ, 72 h; in %
Provide the reported cell viability, A375 XP, 1μΜ of each item.
Give bare numbers.

compound	testSystem	endpointLabel	reading
CC(=O)Nc1cccc(-n2c(=O)n(C3CC3)c(=O)c3c(Nc4ccc(I)cc4F)n(C)c(=O)c(C)c32)c1	A375-XP cells (Vemurafenib-resistant)	cell viability, A375 XP, 1μΜ	14.9
COc1cc2ncnc(Nc3cccc(Br)c3)c2cc1OC.Cl [PD153035 HCl]	A375-XP cells (Vemurafenib-resistant)	cell viability, A375 XP, 1μΜ	108.7
CCc1cc(Nc2nccc(-c3c(-c4ccc(OC)c(C(=O)Nc5c(F)cccc5F)c4)nc4ccccn34)n2)c(OC)cc1N1CCC(N2CCN(S(C)(=O)=O)CC2)CC1 [GSK1904529A]	A375-XP cells (Vemurafenib-resistant)	cell viability, A375 XP, 1μΜ	104.6
CCOc1cc2ncc(C#N)c(Nc3ccc(F)c(Cl)c3)c2cc1NC(=O)/C=C/CN(C)C [Pelitinib (EKB-569)]	A375-XP cells (Vemurafenib-resistant)	cell viability, A375 XP, 1μΜ	104.6
CCOc1cc2ncc(C#N)c(Nc3ccc(OCc4ccccn4)c(Cl)c3)c2cc1NC(=O)/C=C/CN(C)C	A375-XP cells (Vemurafenib-resistant)	cell viability, A375 XP, 1μΜ	89.5
Nc1cccc(-c2cc3c(Oc4cccc(O)c4)ncnc3[nH]2)c1	A375-XP cells (Vemurafenib-resistant)	cell viability, A375 XP, 1μΜ	96.8

Next up:
### Prompt Find the measured cell viability, A375 XP, 1μΜ: item COc1cc2ncnc(Nc3cccc(Cl)c3)c2cc1OC , target or system A375-XP cells (Vemurafenib-resistant).
### Response 99.5
